Parameter Kd: see the listing below.
- TEST_TARGET: T1, EsCas13d, nuclease-dead (Eubacterium siraeum, UniProt B0MS50, R295A;H300A;R849A;H854A)
- T1 sequence: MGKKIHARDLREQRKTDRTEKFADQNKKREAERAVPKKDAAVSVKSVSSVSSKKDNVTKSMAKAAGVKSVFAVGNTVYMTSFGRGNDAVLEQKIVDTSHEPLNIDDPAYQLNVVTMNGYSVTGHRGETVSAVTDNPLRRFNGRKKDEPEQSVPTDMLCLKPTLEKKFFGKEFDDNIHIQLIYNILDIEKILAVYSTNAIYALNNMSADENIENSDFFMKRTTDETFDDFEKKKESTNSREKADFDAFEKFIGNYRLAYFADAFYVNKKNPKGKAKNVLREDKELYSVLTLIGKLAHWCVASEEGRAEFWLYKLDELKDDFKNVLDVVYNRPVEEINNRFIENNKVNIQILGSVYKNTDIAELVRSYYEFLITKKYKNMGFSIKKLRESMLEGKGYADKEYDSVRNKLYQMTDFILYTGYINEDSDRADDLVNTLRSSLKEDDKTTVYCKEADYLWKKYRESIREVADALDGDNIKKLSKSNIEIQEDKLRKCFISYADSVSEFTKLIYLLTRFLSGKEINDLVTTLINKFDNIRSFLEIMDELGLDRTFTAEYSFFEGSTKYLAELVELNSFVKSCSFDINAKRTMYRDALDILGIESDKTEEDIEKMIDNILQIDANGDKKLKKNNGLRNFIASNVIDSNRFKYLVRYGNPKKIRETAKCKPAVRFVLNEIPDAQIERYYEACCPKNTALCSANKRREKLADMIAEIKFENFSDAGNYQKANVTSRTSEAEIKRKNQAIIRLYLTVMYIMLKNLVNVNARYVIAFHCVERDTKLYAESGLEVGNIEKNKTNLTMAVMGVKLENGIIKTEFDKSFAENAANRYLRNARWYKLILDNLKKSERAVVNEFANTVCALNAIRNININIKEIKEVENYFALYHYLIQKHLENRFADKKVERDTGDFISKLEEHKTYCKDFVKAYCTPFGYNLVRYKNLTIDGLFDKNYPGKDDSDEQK
- MEASUREMENT_PROTOCOL: crRNA (strand 1, pre-loaded); Mg2+; 40 mM Tris-HCl pH 7.5, 150 mM NaCl, 6 mM MgCl2, 1 mM DTT, 0.1% Tween-20, 0.2 mg/ml BSA; 25 C; 10 min per concentration, then washed
- EXPERIMENTAL_PARAMETERS: tags: His6-TwinStrep-SUMO cleaved; N-terminal SNAP kept (SNAP-Surface 488); label: 3' end held by stalled T7 RNA polymerase
Enter your answer as a number in nM; do not include the unit.

Could you tell me which Kd is on file for target 1 del15 (mixed) RNA 1: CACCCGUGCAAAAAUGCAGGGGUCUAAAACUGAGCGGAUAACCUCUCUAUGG RNA 2: GGGAAUGGAUCCACAUCUACGAAUUCGUACCAUAGAAGGUUAUCCGCUCACCGAGAUCGGAAGAGCACACGU ?
8.96

Could you tell me which Kd is on file for target 2 MT 5'PFS UCA 3'PFS UCA (mixed) RNA 1: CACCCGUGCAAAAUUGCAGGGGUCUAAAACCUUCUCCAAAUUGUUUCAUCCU RNA 2: GGGAAUGGAUCCACAUCUACGAAUUCUCAAGGAUGAAACAAUUUGGAGAAGUCAAGAUCGGAAGAGCACACGU ?
4.3

Could you tell me which Kd is on file for target 1 U8A,C22U (mixed) RNA 1: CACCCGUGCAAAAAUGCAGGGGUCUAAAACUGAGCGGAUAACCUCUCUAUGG RNA 2: GGGAAUGGAUCCACAUCUACGAAUUCGUAUCAUAGAGAGGUUAACCGCUCACCGAGAUCGGAAGAGCACACGU ?
35

Could you tell me which Kd is on file for target 1 insC 3' of 12,insC 3' of 8 (mixed) RNA 1: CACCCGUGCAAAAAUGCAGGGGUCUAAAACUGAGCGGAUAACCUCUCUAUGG RNA 2: GGGAAUGGAUCCACAUCUACGAAUUCGUACCAUAGAGAGGCUUAUCCCGCUCACCGAGAUCGGAAGAGCACACGU ?
32.1
